Consider the following compounds; for each one, report its GI50.
System: COLO 205
METHOD_DESCRIPTION: NCI tumour cell line growth inhibition, 48 h
Activity calls are given as the source filed them. Cut-off read from the data, not from the text of the source: active = GI50 up to about 1.1 µM and inactive = higher.

Given "N/C(=N\O)N/N=C/c1ccc(O)c(O)c1" , report its GI50 on COLO 205.
> 100 µM (inactive)

Need GI50 for each of these compounds.
1. CC1=CCC[C@@](C)(O)[C@@H]2C[C@H]3C(CSc4ccccc4)C(=O)O[C@H]3[C@@H](O2)[C@H](C)CCC1 (some centres undefined)
2. O=C1Nc2ccccc2Nc2ccncc21
3. COc1ccc(C2C(N)=NCC2c2ccccn2)cc1 (centres undefined)

1. 18.1 µM (inactive)
2. > 100 µM (inactive)
3. > 100 µM (inactive)

====

Consider the following molecules; for each one, report its GI50.
Test system: COLO 205
METHOD_DESCRIPTION: NCI tumour cell line growth inhibition, 48 h
Active and inactive are the calls of the source. No stated cut-off is given here; in the data, active = GI50 up to about 1.1 µM and inactive = higher.

Given C=C1C(NC)CCC23CC24CCC2(C)C(C(C)=O)C(O)CC2(C)C4CCC13 (configuration not stated) , report its GI50 on COLO 205.
> 100 µM (inactive)

Need GI50 for each of these molecules.
1. C=C(C)c1nc(C#N)c(N)o1
2. Cc1c(N2C(=O)CS(=O)(=O)C2c2cccc(Oc3ccccc3)c2)c(=O)n(-c2ccccc2)n1C (configuration not stated)

["> 100 µM (inactive)", "28 µM (inactive)"]

====

Test system: OVCAR-3
METHOD_DESCRIPTION: NCI tumour cell line growth inhibition, 48 h
Active and inactive are the calls of the source. No stated cut-off is given here; in the data, active = GI50 up to about 1.1 µM and inactive = higher.
Bench note: report the call from YES = active, NO = inactive

Field: example entries. Status: answers known.
What outcome does the record of this test show for O=C(Nc1ccccc1)N1N=C(c2ccccc2)C1c1ccccc1 (stereo not drawn) ?
NO

What outcome does the record of this test show for "CCOC(=O)C1=C(Nc2ccc(Cl)c(Cl)c2)OC/C1=N\NS(=O)(=O)c1ccc(C)cc1" ?
NO

What outcome does the record of this test show for "Cc1nc2sccn2c1C(=O)OCCOCCOCCOCCOC(=O)c1c(C)nc2sccn12" ?
NO

More entries:
What outcome does the record of this test show for CCOC(=O)CCC(NC(=O)c1ccc(OCc2ccc3nc(-c4ccccc4)c(Cl)nc3c2)cc1)C(=O)OCC (stereo not drawn) ?
NO

What outcome does the record of this test show for O=c1[nH]c2c(c(=O)[nH]1)SC(c1ccccc1)C2 (stereo not drawn) ?
NO

What outcome does the record of this test show for "COC(=O)[C@H](C)N(C)C(=O)[C@H](C)N1[C@@H](c2ccccc2)COC1(C)C" ?
NO

What outcome does the record of this test show for O=C(O)CCC1NC(/C(=C/c2ccccc2O)NC(=O)c2ccccc2)OC1=O (stereo not drawn) ?
NO

What outcome does the record of this test show for "CCNC(=S)NNC(=O)c1csc(NC(=S)NC2CCCCC2)n1" ?
NO

What outcome does the record of this test show for "Cc1ccc([N+](=O)[O-])c2c(NCCC[N+](C)(C)[O-])c3ccccc3nc12" ?
NO

====

System: NCI-H226
METHOD_DESCRIPTION: NCI tumour cell line growth inhibition, 48 h
Calls of active or inactive are those of the source. No stated cut-off is given here; in the data, active = GI50 up to about 1.1 µM and inactive = higher.
Bench note: report the call from yes (active), no (inactive)

Field: example entries. Status: answers known.
What outcome does the record of this test show for "CCOC(=O)C1=CN2C(=N[C@H]3CCCC[C@@H]32)NC1=O" ?
no

What outcome does the record of this test show for "CCOC(=O)N1CCc2cc(OC)c(OC)c3c2c1cc1cc(OC)c(OC)cc13" ?
no

What outcome does the record of this test show for CCCCC/C=C1\CCC(CN2CCOCC2)C1=O (stereo unspecified) ?
no

What outcome does the record of this test show for CC(=O)C(N1CCCCC1)C(O)(C(F)(F)F)C(F)(F)F (stereo unspecified) ?
no

What outcome does the record of this test show for CCn1cc(C(c2ccc(Cl)cc2)n2ccnc2)c2cc(Br)ccc21 (stereo unspecified) ?
no

More entries:
What outcome does the record of this test show for "Cc1ccc(Sc2ccccc2N)cc1" ?
no

What outcome does the record of this test show for CC#CC(O)(C(=O)OC1CC2CCC(C1)N2C)C1CCCC1 (stereo unspecified) ?
no
